# Target of assay: Cytochrome P450 2C9 (Homo sapiens)
# Assay notes: Cytochrome panel assay with activity outcomes
# Condition details: recombinant CYP, pro-luciferin dealkylation, luminescence, p450-cyp2c9; series mostly up to 57.1 µM
The campaign covered roughly 16,000 compounds. About 4,000 (25%) were called active. Not shown: some 26% with an inconclusive outcome. A selection follows.
Readout type: AC50

- Molecule: "Cc1ccc(NC(=O)CCSc2nnc3ccccn23)cc1"
  Readout type: "AC50"
  Recorded result: "inactive"
- Molecule: "CCN(CC)CCOc1ccc2nc(N(C)C)sc2c1"
  Readout type: "AC50"
  Recorded result: "inactive"
- Molecule: "COc1ccccc1CN1CCCC2(CCN(C(=O)c3cnccn3)CC2)C1"
  Readout type: "AC50"
  Recorded result: "inactive"
- Molecule: "Cc1nn(Cc2ccc(Cl)cc2)c(C)c1NC(=O)CSc1nc2c(c(C(F)(F)F)n1)CCc1ccccc1-2"
  Readout type: "AC50"
  Recorded result: "1410 nM (active)"
- Molecule: "Cc1ccc(C(CC(N)=O)c2ccco2)cc1 (stereo not drawn)"
  Readout type: "AC50"
  Recorded result: "inactive"
- Molecule: "Cc1nc2c([nH]1)c(=O)n(C)c(=O)n2Cc1ccco1"
  Readout type: "AC50"
  Recorded result: "inactive"
- Molecule: "Cc1ccc(C(=O)O/N=C\\c2ccc(N3CCCCC3)c([N+](=O)[O-])c2)cc1"
  Readout type: "AC50"
  Recorded result: "2240 nM (active)"
- Molecule: "Cn1c(=O)c(-c2cc(F)cc(F)c2)nc2cncnc21"
  Readout type: "AC50"
  Recorded result: "inactive"
- Molecule: "C/C=C\\C[C@@H](C)[C@@H](O)[C@H]1C(=O)N[C@@H](CC)C(=O)N(C)CC(=O)N(C)[C@@H](CC(C)C)C(=O)N[C@@H](C(C)C)C(=O)N(C)[C@@H](CC(C)C)C(=O)N[C@@H](C)C(=O)N[C@H](C)C(=O)N(C)[C@@H](CC(C)C)C(=O)N(C)[C@@H](CC(C)C)C(=O)N(C)[C@@H](C(C)C)C(=O)N1C"
  Readout type: "AC50"
  Recorded result: "inactive"
- Molecule: "COc1ccc(-c2nc3cnc(OC)nc3n(C)c2=O)cc1"
  Readout type: "AC50"
  Recorded result: "inactive"
- Molecule: "COCCn1c(=O)c(-c2cccc(F)c2)nc2cncnc21"
  Readout type: "AC50"
  Recorded result: "inactive"
- Molecule: "COc1ccc(-n2c(=O)c(-c3cccc(F)c3)nc3cncnc32)cc1"
  Readout type: "AC50"
  Recorded result: "inactive"
- Molecule: "CCN1CCN(c2cc(=O)n(-c3cc(Cl)ccc3C)c(=O)[nH]2)CC1"
  Readout type: "AC50"
  Recorded result: "inactive"
- Molecule: "O=C(NCCCN1CCN(Cc2ccccc2)CC1)C1CCN(S(=O)(=O)N2CCCC2)CC1"
  Readout type: "AC50"
  Recorded result: "inactive"
- Molecule: "COc1ccccc1CN1CCCC2(CCN(C(=O)c3ccco3)CC2)C1"
  Readout type: "AC50"
  Recorded result: "inactive"
- Molecule: "NC(=O)CC(c1ccccc1)c1ccco1 (stereo not drawn)"
  Readout type: "AC50"
  Recorded result: "inactive"
- Molecule: "Cn1c(=O)c(-c2ccc(Cl)cc2)nc2cncnc21"
  Readout type: "AC50"
  Recorded result: "inactive"
- Molecule: "Cn1c(=O)n(-c2ccc(Cl)cc2)c(=O)c2c3c(sc21)COC(C)(C)C3"
  Readout type: "AC50"
  Recorded result: "10000 nM (active)"
- Molecule: "Cc1c(C=NCCOCc2ccccc2)cnn1C"
  Readout type: "AC50"
  Recorded result: "inactive"
- Molecule: "O=C(CSc1nnnn1-c1ccccc1)NCc1cccs1"
  Readout type: "AC50"
  Recorded result: "inactive"
- Molecule: "COc1ccccc1CCn1c(=O)c(-c2cccc(F)c2)nc2cncnc21"
  Readout type: "AC50"
  Recorded result: "2510 nM (active)"
- Molecule: "CC(=O)NCCc1c[nH]c2ccc(O)cc12"
  Readout type: "AC50"
  Recorded result: "inactive"
- Molecule: "O=C(N/N=C/C1C(c2ccccc2)C1(Cl)Cl)c1cccc(Br)c1 (stereo not drawn)"
  Readout type: "AC50"
  Recorded result: "2000 nM (active)"
- Molecule: "O=C(N/N=C\\c1ccc(Sc2ccccn2)o1)c1cccc(Br)c1"
  Readout type: "AC50"
  Recorded result: "2240 nM (active)"
- Molecule: "Cc1onc(-c2ccccc2)c1C(=O)NCCc1c[nH]c2ccccc12"
  Readout type: "AC50"
  Recorded result: "3980 nM (active)"
- Molecule: "C=CCn1c(Cc2c[nH]c3ccccc23)nnc1SCC(=O)NCc1ccccc1"
  Readout type: "AC50"
  Recorded result: "14100 nM (active)"
- Molecule: "Cc1ccccc1C(=O)c1cccn1CC(=O)NCc1ccco1"
  Readout type: "AC50"
  Recorded result: "inactive"
- Molecule: "Cc1ccc(CNC(=O)Cn2c(=O)oc3ccccc32)o1"
  Readout type: "AC50"
  Recorded result: "inactive"
- Molecule: "CC(=O)Nc1c(C(=O)N2CCOCC2)cnn1-c1ccc(C)c(C)c1"
  Readout type: "AC50"
  Recorded result: "inactive"
- Molecule: "Cc1ccccc1C(=O)N1CCN(c2ccc([N+](=O)[O-])c(N3CCOCC3)c2)CC1"
  Readout type: "AC50"
  Recorded result: "5010 nM (active)"
- Molecule: "COc1ccccc1OCCn1cc(C(=O)c2ccco2)c2ccccc21"
  Readout type: "AC50"
  Recorded result: "562 nM (active)"
- Molecule: "Cc1ccccc1Cn1cc(NC(=O)CSc2nc3c(c(C(F)(F)F)n2)CCc2ccccc2-3)cn1"
  Readout type: "AC50"
  Recorded result: "1780 nM (active)"
- Molecule: "O=C(c1ccco1)N(CCC(c1ccccc1)c1ccco1)Cc1ccco1 (stereo not drawn)"
  Readout type: "AC50"
  Recorded result: "2240 nM (active)"
- Molecule: "O=C(N/N=C/c1cccc(Oc2ccccc2)c1)c1cccc(Br)c1"
  Readout type: "AC50"
  Recorded result: "7080 nM (active)"
- Molecule: "C=C1C(=O)O[C@@H]2[C@@H]1CC/C(C)=C\\CC[C@@]1(C)O[C@H]21"
  Readout type: "AC50"
  Recorded result: "inactive"
- Molecule: "COc1ccccc1CN1CCC2(CC1)CCN(C(=O)c1ccco1)CC2"
  Readout type: "AC50"
  Recorded result: "inactive"
- Molecule: "Cc1ccc(-n2c(C)cc(C(=S)N3CCOCC3)c2C)cc1C"
  Readout type: "AC50"
  Recorded result: "11200 nM (active)"
- Molecule: "C[n+]1cccc(CNC(=O)/C=N/O)c1"
  Readout type: "AC50"
  Recorded result: "inactive"
- Molecule: "CC(C)(C)C(=O)NC(Nc1cccc2cccnc12)C(Cl)(Cl)Cl (stereo not drawn)"
  Readout type: "AC50"
  Recorded result: "1260 nM (active)"
- Molecule: "CN1CCc2c(sc3c2c(=O)n(-c2ccccc2)c2nncn32)C1"
  Readout type: "AC50"
  Recorded result: "inactive"
- Molecule: "O=C(NCCc1ccc(Cl)cc1)C1CCN(S(=O)(=O)N2CCC3(CC2)OCCO3)CC1"
  Readout type: "AC50"
  Recorded result: "7080 nM (active)"
- Molecule: "CNC(=O)Oc1ccc2c(c1)[C@@]1(C)CCN(C)[C@@H]1N2C"
  Readout type: "AC50"
  Recorded result: "inactive"
- Molecule: "Cc1ccc(C)c(OCCCC(C)(C)C(=O)O)c1"
  Readout type: "AC50"
  Recorded result: "6310 nM (active)"

Attribution: PubChem BioAssay AID1851
